Can you tell me IC50 for the items I'm about to list?
# testSystem: β2i subunit of human iCP (Homo sapiens, UniProt P40306+P49720)
# testMethodNotes: IC50 determination with fluorogenic substrate Ac-RLR-AMC (PA28β added)
Write down the numeric answer in nM and omit the unit.

Exam item: API: value(readout= IC50, system= β2i subunit of human iCP (Homo sapiens, UniProt P40306+P49720), query= O=C(N[C@@H](Cc1ccccc1)C(=O)N[C@@H](Cc1ccccc1)B(O)O)c1cnccn1 )
Marked response: 3400

Exam item: Another compound to look at: Cc1ccc([C@H](NC(=O)[C@H](Cc2ccccc2)NC(=O)c2cnccn2)B(O)O)cc1
Marked response: 9800

Exam item: Another compound to look at: O=C(N[C@@H](Cc1ccccc1)C(=O)N[C@H](B(O)O)C1CCCC1)c1cnccn1
Marked response: 1000

Exam item: Another compound to look at: COc1ccc([C@@H](O)[C@H](NC(=O)[C@H](C)NC(=O)CN2CCOCC2)C(=O)N[C@@H](CC2=CCCC2)C(=O)[C@@]2(C)CO2)cc1 [KZR-616, reference compound]
Marked response: 338

====

Can you tell me IC50 for the items I'm about to list?
# testSystem: β1i subunit of human iCP (Homo sapiens, UniProt P28065+P40306)
# testMethodNotes: IC50 determination with subunit-specific fluorogenic substrate Ac-PAL-AMC
# experimentalParameters: IC50 β1i, own assay
Write down the numeric answer in nM and omit the unit.

Exam item: Using the record for COc1ccc([C@@H](O)[C@H](NC(=O)[C@H](C)NC(=O)CN2CCOCC2)C(=O)N[C@@H](CC2=CCCC2)C(=O)[C@@]2(C)CO2)cc1 [KZR-616, reference compound] , report its IC50.
Marked response: 96

Exam item: Another compound to look at: C[C@]1(C(=O)[C@H](Cc2ccccc2)NC(=O)[C@H](CO)NC(=O)c2cccc(=O)[nH]2)CO1
Marked response: 59

Exam item: Another compound to look at: CC(C)C[C@H](NC(=O)C(C)(C)NC(=O)c1ccccc1C(F)(F)F)B(O)O [ML604440, reference compound]
Marked response: 8

====

# testMethodNotes: Metabolic stability in human liver microsomes
# Assay type: in vitro ADME
# experimentalParameters: pH 7.4; human liver microsomes, 2 μM, 40 min
measuredQuantity: half-life at 2 μM (min)
Write down the numeric answer in min and omit the unit.

Exam item: Using the record for O=C(N[C@@H](Cc1ccccc1)C(=O)N[C@H](B(O)O)C1CCCC1)c1cnccn1 , report its half-life at 2 μM.
Marked response: 39.4

Exam item: Another compound to look at: CC(C)C[C@H](NC(=O)[C@H](Cc1ccccc1)NC(=O)c1cnccn1)B(O)O [bortezomib, reference compound]
Marked response: 34.5

====

# testSystem: β1i subunit of human iCP (Homo sapiens, UniProt P28065+P40306)
# testMethodNotes: IC50 determination with subunit-specific fluorogenic substrate Ac-PAL-AMC
# experimentalParameters: IC50 β1i, human iCP; mean of at least three experiments; NA: not active at 50 μM
measuredQuantity: IC50 (nM)
Write down the numeric answer in nM and omit the unit.

Exam item: Using the record for Cc1ccc([C@H](NC(=O)[C@H](Cc2ccccc2)NC(=O)c2cnccn2)B(O)O)cc1 , report its IC50.
Marked response: 42

Exam item: Another compound to look at: O=C(N[C@@H](Cc1ccccc1)C(=O)N[C@H](B(O)O)c1ccc(F)cc1)c1cnccn1
Marked response: 38

Exam item: Another compound to look at: O=C(N[C@@H](Cc1ccccc1)C(=O)N[C@H](B(O)O)c1ccc2c(c1)OCO2)c1cnccn1
Marked response: 201

Exam item: Another compound to look at: O=C(N[C@@H](Cc1ccccc1)C(=O)N[C@H](B(O)O)c1ccc(-c2ccccc2)cc1)c1cnccn1
Marked response: 270

Exam item: Another compound to look at: COc1ccc([C@H](NC(=O)[C@H](Cc2ccccc2)NC(=O)c2cnccn2)B(O)O)cc1
Marked response: 40

Exam item: Another compound to look at: O=C(N[C@@H](Cc1ccccc1)C(=O)N[C@H](B(O)O)c1ccc(Cl)cc1)c1cnccn1
Marked response: 17

Exam item: Another compound to look at: O=C(N[C@@H](Cc1ccccc1)C(=O)N[C@H](B(O)O)C1CC1)c1cnccn1
Marked response: 172

Exam item: Another compound to look at: O=C(N[C@@H](Cc1ccccc1)C(=O)N[C@H](B(O)O)c1ccccc1)c1cnccn1
Marked response: 746
